- Test system: NCI-H929 complex spheroids, viability % test/control
- procedure details: Anticancer human tumor NCI-H929 cell line growth inhibition [RAS];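 also: compound exposure lasted seven days before viability was read; 100% = DMSO vehicle control viability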
- condition set: second compound 0.3 µM; first compound 1 µM; hits give low values
assay readout: viability, T/C (%)
Write down the numeric answer in % and omit the unit.

These solved cases illustrate the format of a correct answer.
C[C@@H](NC(=O)c1ncnc(N)c1Cl)c1ncc(C(=O)Nc2cc(C(F)(F)F)c(Cl)cn2)s1 + CCn1c(-c2cc(N3CCN(C)CC3)cnc2C(C)OC)c2c3cc(ccc31)-c1csc(n1)CC(NC(=O)C1CC1C)C(=O)N1CCCC(N1)C(=O)OCC(C)(C)C2 ... 13.3
C=CC(=O)Nc1cc(Nc2nccc(-c3cn(C)c4ccccc34)n2)c(OC)cc1N(C)CCN(C)C + CCn1c(-c2cc(N3CCN(C)CC3)cnc2C(C)OC)c2c3cc(ccc31)-c1csc(n1)CC(NC(=O)C1CC1C)C(=O)N1CCCC(N1)C(=O)OCC(C)(C)C2 ... 1.46
Nc1ccn(C2OC(CO)C(O)C2(F)F)c(=O)n1 (centres undefined) + CCn1c(-c2cc(N3CCN(C)CC3)cnc2C(C)OC)c2c3cc(ccc31)-c1csc(n1)CC(NC(=O)C1CC1C)C(=O)N1CCCC(N1)C(=O)OCC(C)(C)C2 ... 0.86

Shifting focus to the compound that follows.
Recorded viability, T/C (compound C[C@@H](NC(=O)c1ncnc(N)c1Cl)c1ncc(C(=O)Nc2cc(C(F)(F)F)c(Cl)cn2)s1 + CCn1c(-c2cccnc2C(C)OC)c2c3cc(ccc31)N1CCOC(CC(NC(=O)C(C(C)C)N(C)C(=O)C3(F)CCN(C(=O)C#CC(C)(C)N(C)C)CC3)C(=O)N3CCCC(N3)C(=O)OCC(C)(C)C2)C1 ): 87.4

---

- System: NCI-H929 complex spheroids, viability % test/control
- procedure details: Anticancer human tumor NCI-H929 cell line growth inhibition [RAS];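 also: compound exposure lasted seven days before viability was read; 100% = DMSO vehicle control viability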
- condition set: second compound 0.3 µM; first compound 0.00316 µM; hits give low values
Field: label. Allowed values: yes (1) (viability, T/C < 5%) or no (0) (viability, T/C >= 5%).

Use the examples below as a reference point.
C=CC(=O)N1CCN(c2nc(OCC3CCCN3C)nc3c(F)c(-c4nc(N)cc(C)c4C(F)(F)F)c(Cl)cc23)C(C)C1 (configuration not stated) + CCn1c(-c2cccnc2C(C)OC)c2c3cc(ccc31)N1CCOC(CC(NC(=O)C(C(C)C)N(C)C(=O)C3(F)CCN(C(=O)C#CC(C)(C)N(C)C)CC3)C(=O)N3CCCC(N3)C(=O)OCC(C)(C)C2)C1 ... no (0)
C=CC(=O)N1CCN(c2nc(OCC3CCCN3C)nc3c(F)c(-c4nc(N)cc(C)c4C(F)(F)F)c(Cl)cc23)C(C)C1 (configuration not stated) + CCn1c(-c2cc(N3CCN(C)CC3)cnc2C(C)OC)c2c3cc(ccc31)-c1csc(n1)CC(NC(=O)C1CC1C)C(=O)N1CCCC(N1)C(=O)OCC(C)(C)C2 ... yes (1)
O=C(c1ccc(F)c(F)c1Nc1ccc(I)cc1F)N1CC(O)([C@@H]2CCCCN2)C1 + CCn1c(-c2cccnc2C(C)OC)c2c3cc(ccc31)N1CCOC(CC(NC(=O)C(C(C)C)N(C)C(=O)C3(F)CCN(C(=O)C#CC(C)(C)N(C)C)CC3)C(=O)N3CCCC(N3)C(=O)OCC(C)(C)C2)C1 ... no (0)
O=C(c1ccc(F)c(F)c1Nc1ccc(I)cc1F)N1CC(O)([C@@H]2CCCCN2)C1 + CCn1c(-c2cc(N3CCN(C)CC3)cnc2C(C)OC)c2c3cc(ccc31)-c1csc(n1)CC(NC(=O)C1CC1C)C(=O)N1CCCC(N1)C(=O)OCC(C)(C)C2 ... yes (1)
CC(C)n1nc(-c2ccc3oc(N)nc3c2)c2c(N)ncnc21 + CCn1c(-c2cccnc2C(C)OC)c2c3cc(ccc31)N1CCOC(CC(NC(=O)C(C(C)C)N(C)C(=O)C3(F)CCN(C(=O)C#CC(C)(C)N(C)C)CC3)C(=O)N3CCCC(N3)C(=O)OCC(C)(C)C2)C1 ... no (0)

Inquiry: Strictly below 5%: is that where viability, T/C of C=CC(=O)Nc1cc(Nc2nccc(-c3cn(C)c4ccccc34)n2)c(OC)cc1N(C)CCN(C)C + CCn1c(-c2cccnc2C(C)OC)c2c3cc(ccc31)N1CCOC(CC(NC(=O)C(C(C)C)N(C)C(=O)C3(F)CCN(C(=O)C#CC(C)(C)N(C)C)CC3)C(=O)N3CCCC(N3)C(=O)OCC(C)(C)C2)C1 sits?
Reply text: no (0)

Inquiry: Strictly below 5%: is that where viability, T/C of Nc1ccn(C2OC(CO)C(O)C2(F)F)c(=O)n1 (configuration not stated) + CCn1c(-c2cccnc2C(C)OC)c2c3cc(ccc31)N1CCOC(CC(NC(=O)C(C(C)C)N(C)C(=O)C3(F)CCN(C(=O)C#CC(C)(C)N(C)C)CC3)C(=O)N3CCCC(N3)C(=O)OCC(C)(C)C2)C1 sits?
Reply text: no (0)

Inquiry: Strictly below 5%: is that where viability, T/C of CCN1CCN(Cc2ccc(Nc3ncc(F)c(-c4cc(F)c5nc(C)n(C(C)C)c5c4)n3)nc2)CC1 + CCn1c(-c2cccnc2C(C)OC)c2c3cc(ccc31)N1CCOC(CC(NC(=O)C(C(C)C)N(C)C(=O)C3(F)CCN(C(=O)C#CC(C)(C)N(C)C)CC3)C(=O)N3CCCC(N3)C(=O)OCC(C)(C)C2)C1 sits?
Reply text: no (0)

Inquiry: Strictly below 5%: is that where viability, T/C of C=CC(=O)Nc1cc(Nc2nccc(-c3cn(C)c4ccccc34)n2)c(OC)cc1N(C)CCN(C)C + CCn1c(-c2cc(N3CCN(C)CC3)cnc2C(C)OC)c2c3cc(ccc31)-c1csc(n1)CC(NC(=O)C1CC1C)C(=O)N1CCCC(N1)C(=O)OCC(C)(C)C2 sits?
Reply text: yes (1)

Inquiry: Strictly below 5%: is that where viability, T/C of CCN1CCN(Cc2ccc(Nc3ncc(F)c(-c4cc(F)c5nc(C)n(C(C)C)c5c4)n3)nc2)CC1 + CCn1c(-c2cc(N3CCN(C)CC3)cnc2C(C)OC)c2c3cc(ccc31)-c1csc(n1)CC(NC(=O)C1CC1C)C(=O)N1CCCC(N1)C(=O)OCC(C)(C)C2 sits?
Reply text: yes (1)

Inquiry: Strictly below 5%: is that where viability, T/C of CC(C)n1nc(-c2ccc3oc(N)nc3c2)c2c(N)ncnc21 + CCn1c(-c2cc(N3CCN(C)CC3)cnc2C(C)OC)c2c3cc(ccc31)-c1csc(n1)CC(NC(=O)C1CC1C)C(=O)N1CCCC(N1)C(=O)OCC(C)(C)C2 sits?
Reply text: yes (1)

Inquiry: Strictly below 5%: is that where viability, T/C of Nc1ccn(C2OC(CO)C(O)C2(F)F)c(=O)n1 (configuration not stated) + CCn1c(-c2cc(N3CCN(C)CC3)cnc2C(C)OC)c2c3cc(ccc31)-c1csc(n1)CC(NC(=O)C1CC1C)C(=O)N1CCCC(N1)C(=O)OCC(C)(C)C2 sits?
Reply text: yes (1)
